- assay_system: Tubulin (Sus scrofa) (UniProt P02554+P02550)
- Sequence (P02550 whole entry, looked up): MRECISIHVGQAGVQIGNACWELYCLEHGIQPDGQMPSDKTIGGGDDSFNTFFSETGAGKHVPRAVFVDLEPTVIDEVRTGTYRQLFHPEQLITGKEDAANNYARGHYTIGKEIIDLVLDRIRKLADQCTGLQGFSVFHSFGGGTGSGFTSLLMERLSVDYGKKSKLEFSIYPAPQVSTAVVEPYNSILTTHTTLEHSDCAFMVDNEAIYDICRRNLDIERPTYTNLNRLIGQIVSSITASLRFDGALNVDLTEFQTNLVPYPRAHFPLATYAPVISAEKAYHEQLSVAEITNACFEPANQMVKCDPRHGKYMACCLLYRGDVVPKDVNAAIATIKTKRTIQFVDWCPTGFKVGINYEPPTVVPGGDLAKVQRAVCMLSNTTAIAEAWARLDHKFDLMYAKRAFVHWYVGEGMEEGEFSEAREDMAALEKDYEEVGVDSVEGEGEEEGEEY
- Sequence (P02554 whole entry, looked up): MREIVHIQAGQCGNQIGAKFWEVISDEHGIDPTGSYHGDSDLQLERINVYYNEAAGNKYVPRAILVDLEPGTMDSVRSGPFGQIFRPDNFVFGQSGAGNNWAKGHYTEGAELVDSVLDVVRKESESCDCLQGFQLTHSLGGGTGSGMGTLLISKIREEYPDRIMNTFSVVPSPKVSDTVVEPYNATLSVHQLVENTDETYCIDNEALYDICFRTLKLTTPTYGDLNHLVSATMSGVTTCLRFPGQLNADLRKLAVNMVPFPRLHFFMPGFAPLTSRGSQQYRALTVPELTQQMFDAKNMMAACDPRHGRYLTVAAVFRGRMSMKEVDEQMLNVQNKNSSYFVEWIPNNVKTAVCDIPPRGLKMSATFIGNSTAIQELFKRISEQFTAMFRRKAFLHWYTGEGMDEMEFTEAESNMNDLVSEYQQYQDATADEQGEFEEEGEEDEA
- test_details: Inhibition of pig brain tubulin polymerization at 10 uM by spectrophotometric analysis relative to control
measured_attribute: inhibition (%)
Answers are plain numbers, in %.

Study these solved cases before continuing.
Query: What value of measured inhibition is listed for `COc1ccc(C(=O)c2[nH]c3ccccc3c2NC(=O)c2cc(OC)c(OC)c(OC)c2)cc1` ?
Reply: 20

Query: What value of measured inhibition is listed for `COc1cc(C(=O)Nc2c(C(=O)c3ccc(Cl)cc3)[nH]c3cc(Cl)ccc23)cc(OC)c1OC` ?
Reply: 59

Query: What value of measured inhibition is listed for `COc1ccc(C(=O)c2[nH]c3cc(Cl)ccc3c2NC(=O)c2cc(OC)c(OC)c(OC)c2)cc1` ?
Reply: 47

Query: What value of measured inhibition is listed for `COc1cc(C(=O)Nc2c(C(=O)c3ccc(Cl)cc3)[nH]c3cc(C)ccc23)cc(OC)c1OC` ?
Reply: 15

Query: What value of measured inhibition is listed for `COc1cc(C(=O)Nc2c(C(=O)c3ccc(C)cc3)[nH]c3cc(Cl)ccc23)cc(OC)c1OC` ?
Reply: 36

Query: What value of measured inhibition is listed for `COc1cc(C(=O)Nc2c(C(=O)c3ccc(Br)cc3)[nH]c3ccccc23)cc(OC)c1OC` ?
Reply: 37

Please supply inhibition for each of the following items, keeping them in order.
1. COc1cc(C(=O)Nc2c(C(=O)c3cccc(Br)c3)[nH]c3cc(Cl)ccc23)cc(OC)c1OC
2. COc1ccc(C(=O)c2[nH]c3cc(OC)ccc3c2NC(=O)c2cc(OC)c(OC)c(OC)c2)cc1
3. COc1cc(C(=O)Nc2c(C(=O)c3ccccc3)[nH]c3cc(Cl)ccc23)cc(OC)c1OC
4. COc1cc(C(=O)Nc2c(C(=O)c3ccc(F)cc3)[nH]c3cc(C)ccc23)cc(OC)c1OC
5. COc1ccc(C(=O)c2[nH]c3cc(Cl)ccc3c2NC(=O)c2cc(OC)c(OC)c(OC)c2)cc1O

Reply:
[25, 25, 41, 17, 30]

The measured values listed here are drawn from ChEMBL document CHEMBL4382246.
